Sourced from PubChem BioAssay AID1556

# inhibition per entry
# Test system: metallo-beta-lactamase IMP-1 (Pseudomonas aeruginosa)
# ASSAY_DETAILS: IMP-1 metallo-beta-lactamase inhibitors, primary screen, biochemical, epi-absorbance readout, Pseudomonas aeruginosa enzyme (AID 1556);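 also: 0% = IMP-1 with DMSO and 100% = DMSO wells lacking enzyme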
# CONDITION_SUMMARY: purified IMP-1, nitrocefin hydrolysis, epi-absorbance fluorescence; at 5.6 µM; active compounds read high
The campaign covered roughly 290,000 compounds. About 1,300 (0.45%) were called active. The sample as a whole holds a higher share of actives than the screen did.
MEASUREMENT_KIND: inhibition (%)

molecule="CCCCC(c1nnnn1CS(=O)(=O)c1ccc(C)cc1)N1CCC(C(N)=O)CC1 (stereo not given)" measurement_kind=inhibition units=% observed_measurement=0.14
molecule="Cc1cc(-c2ccc(C)c(S(=O)(=O)NC(C)Cc3ccco3)c2)on1 (stereo not given)" measurement_kind=inhibition units=% observed_measurement=-1.25
molecule=COc1ccccc1C(=O)NNC(=O)CCN1C(=O)/C(=C\c2ccccc2)SC1=S measurement_kind=inhibition units=% observed_measurement=-0.96
molecule=CCOc1ccc(NC(=O)N2CC=C(n3c(=O)[nH]c4ccccc43)CC2)cc1 measurement_kind=inhibition units=% observed_measurement=6.24
molecule=Cc1ccccc1NC(=O)CN1C(=O)N/C(=C\c2cccn2-c2cccc(C(=O)O)c2)C1=O measurement_kind=inhibition units=% observed_measurement=-2.07
molecule=Cc1cccc(NC(=O)Cn2c(=O)n(Cc3ccccc3)c(=O)c3c(C)c(C)sc32)c1 measurement_kind=inhibition units=% observed_measurement=-3.05
molecule=CCOc1ccc(NC(=O)N2CCN(CC)CC2)cc1 measurement_kind=inhibition units=% observed_measurement=-1.66
molecule=Cc1cccc(C)c1NC(=O)N1CC=C(n2c(=O)[nH]c3ccccc32)CC1 measurement_kind=inhibition units=% observed_measurement=-4.93
molecule=COc1cc(/C=C2/SC(=S)N(Cc3ccccc3)C2=O)cc(OC)c1O measurement_kind=inhibition units=% observed_measurement=10
molecule="Cc1ccc(CSCC2Nc3ccc(C(=O)N4CCN(c5ccc(F)cc5)CC4)cc3NC2=O)cc1 (stereo not given)" measurement_kind=inhibition units=% observed_measurement=-4.03

----------
# Tested on: metallo-beta-lactamase IMP-1 (Pseudomonas aeruginosa)
# ASSAY_DETAILS: IMP-1 metallo-beta-lactamase inhibitors, primary screen, biochemical, epi-absorbance readout, Pseudomonas aeruginosa enzyme (AID 1556);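 also: 0% = IMP-1 with DMSO and 100% = DMSO wells lacking enzyme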
# CONDITION_SUMMARY: purified IMP-1, nitrocefin hydrolysis, epi-absorbance fluorescence; at 5.6 µM; active compounds read high
Screen size: about 290,000 compounds; about 1,300 (0.45%) were called active. The sample holds actives, similar compounds and a random draw of the others, so the mix is not that of the screen.
MEASUREMENT_KIND: inhibition

molecule=Cc1ccnc(NC(=O)CCNS(=O)(=O)c2ccc(C)c(C)c2)c1 observed_measurement="-3.48% (inactive)"
molecule=COc1ccc(Cl)cc1NC(=O)CCS(=O)(=O)c1ccc(Br)cc1 observed_measurement="9.04% (active)"
molecule="O=C(NCc1ccncc1)C(=O)NCC1OCCN1S(=O)(=O)c1ccc(Br)cc1 (stereo not drawn)" observed_measurement="-1.07% (inactive)"
molecule=Cc1ccc(CN2CCCOCCS2(=O)=O)cc1 observed_measurement="-1.66% (inactive)"
molecule=CCCCCCC(=O)Nc1nc(C)c(-c2csc(Nc3cc(Cl)ccc3OC)n2)s1 observed_measurement="-2.05% (inactive)"
molecule=CCCCC(=O)Nc1nc(C)c(-c2csc(Nc3ccc(Cl)cc3)n2)s1 observed_measurement="0.37% (inactive)"
molecule=CN(C)/N=C/c1cc(Cl)cc([N+](=O)[O-])c1O observed_measurement="4.62% (active)"
molecule=O=C(N/N=C/c1cc(Cl)cc([N+](=O)[O-])c1O)C(O)(c1ccccc1)c1ccccc1 observed_measurement="-3.33% (inactive)"
molecule=CC1CCN(C(=O)CCNC(=O)c2ccccc2)CC1 observed_measurement="-1.09% (inactive)"
molecule=O=[N+]([O-])c1cc(Cl)cc(/C=N/NC(=S)Nc2cc(S(=O)(=O)N3CCOCC3)ccc2Cl)c1O observed_measurement="-0.24% (inactive)"
molecule="O=C(CSc1nnnn1-c1ccc(O)cc1)N1N=C(c2ccc3ccccc3c2)CC1c1ccccc1 (stereo not drawn)" observed_measurement="-2.75% (inactive)"
molecule=COc1ccc(/C=C(\C#N)c2c[nH]c3ccccc23)cc1 observed_measurement="-0.02% (inactive)"
molecule=CCNS(=O)(=O)c1ccc(NC(=O)Nc2cccc(OC)c2)cc1 observed_measurement="-2.27% (inactive)"

----------
# System: metallo-beta-lactamase IMP-1 (Pseudomonas aeruginosa)
# ASSAY_DETAILS: IMP-1 metallo-beta-lactamase inhibitors, primary screen, biochemical, epi-absorbance readout, Pseudomonas aeruginosa enzyme (AID 1556);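 also: 0% = IMP-1 with DMSO and 100% = DMSO wells lacking enzyme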
# CONDITION_SUMMARY: purified IMP-1, nitrocefin hydrolysis, epi-absorbance fluorescence; at 5.6 µM; active compounds read high
The campaign covered roughly 290,000 compounds. About 1,300 (0.45%) were called active. The list comes from a sample in which actives are over-represented; it also holds close analogues and randomly drawn compounds.
# inhibition per entry
MEASUREMENT_KIND: inhibition (%)

compound="COc1cccc(CNC(=O)C2CC(=O)N(C3CCCCCCC3)C2)c1 (stereo not drawn)" units=% observed_measurement=-1.11
compound=COc1cc(/C=C2\CCCc3c2nc2ccccc2c3C(=O)O)cc(Cl)c1O units=% observed_measurement=-1.14
compound="COC(=O)C1=C(C)NC2=C(C(=O)c3ccccc32)C1c1ccc(-c2ccc(C(=O)O)cc2)o1 (stereo not drawn)" units=% observed_measurement=21.7
compound=Cc1cccc(OCC(=O)Nc2ccc(C(=O)O)cc2NC(=O)COc2cccc(C)c2)c1 units=% observed_measurement=-0.18
compound=NS(=O)(=O)c1ccc(NC(=O)COC(=O)c2c3c(nc4ccccc24)/C(=C\c2ccc4c(c2)OCO4)CCC3)cc1 units=% observed_measurement=28
compound="CC(C)c1ccc(N(C(=O)c2ccco2)C(C(=O)NC2CCCC2)c2cccnc2)cc1 (stereo not drawn)" units=% observed_measurement=-1.29
compound="Cc1ccc(C2C3=C(Nc4[nH]n(-c5ccccc5)c(=O)c42)c2ccccc2C3=O)cc1 (stereo not drawn)" units=% observed_measurement=-5.01
compound=NC(=O)c1ccc(NC(=O)COC(=O)c2c3c(nc4ccccc24)/C(=C\c2ccc4c(c2)OCO4)CCC3)cc1 units=% observed_measurement=19.6
compound="CC1(C)CC(=O)CC2(C1)NCC(c1ccccc1Cl)c1c2[nH]c2ccccc12 (stereo not drawn)" units=% observed_measurement=-5.43
compound="COc1ccc(C(CC(=O)c2ccccc2)S(=O)(=O)c2ccccc2)cc1 (stereo not drawn)" units=% observed_measurement=-1.87
compound="O=C(Nc1ccc(-c2cscn2)cc1)C1CCCN(Cc2ccc(CO)o2)C1 (stereo not drawn)" units=% observed_measurement=-1.8
compound=O=C(Nc1cccc(F)c1)[C@@H]1CCCN1 units=% observed_measurement=-1.96
compound=CC(C)N(C(=O)Cn1cc(S(=O)(=O)CC(=O)N2CCOCC2)c2ccccc21)C(C)C units=% observed_measurement=1.49

----------
# inhibition per entry
# Test system: metallo-beta-lactamase IMP-1 (Pseudomonas aeruginosa)
# ASSAY_DETAILS: IMP-1 metallo-beta-lactamase inhibitors, primary screen, biochemical, epi-absorbance readout, Pseudomonas aeruginosa enzyme (AID 1556);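 also: 0% = IMP-1 with DMSO and 100% = DMSO wells lacking enzyme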
# CONDITION_SUMMARY: purified IMP-1, nitrocefin hydrolysis, epi-absorbance fluorescence; at 5.6 µM; active compounds read high
Out of some 290,000 compounds screened, about 1,300 (0.45%) were called active. Shown is part of a subset that was picked to be rich in actives.
MEASUREMENT_KIND: inhibition (%)

mol=CC(=O)c1cc2c(cc1NC(=O)Cn1nc(-c3ccc(F)cc3)ccc1=O)OCO2 observed_measurement=-1
mol=Cc1cc2nc3c(=O)n(Cc4ccccc4)c(=O)[nH]c3nc2cc1N observed_measurement=9.26
mol=COC(=O)c1nc(NC(=O)c2ccc(C(C)(C)C)cc2)n[nH]1 observed_measurement=-2.13
mol=O=C(/C=C/c1ccco1)Nc1cccc(-c2nc3ccccc3[nH]2)c1 observed_measurement=-2.53
mol=Cc1ccc2[nH]c(=O)c(CN(C)S(=O)(=O)c3cccc4nonc34)cc2c1 observed_measurement=0.09
mol=COc1ccc(C(=O)NNC(=O)c2cnccn2)cc1[N+](=O)[O-] observed_measurement=5.35
